Observed pIC50 for ETB (Rattus norvegicus, UniProt P21451), reported per entry below.
pIC50: −log10 of the molar value. Where a name gives a salt, the structure may show the parent alone. Numbered stars: 1 amine (or outer) side, 2 acyl side, 3 side chain; on linkers, the order of the positions; unused ones are H or OH. Square brackets hold non-standard residues; d marks the D form. Peptide text beside a SMILES is read from it. * marks the point of attachment. X3 = Cc1c(C)c(C)c(C[C@@H](N[*:1])C(=O)[*:2])c(C)c1C; X2 = O=C([C@@H](Cc1c2ccccc2cc2ccccc12)N[*:1])[*:2]; Acetyl(1-adamantyl) = O=C(CC12CC3CC(CC(C3)C1)C2)*; dDip = N[C@@H](C(=O)O)C(c1ccccc1)c1ccccc1; Cyclohexylacetyl = O=C(CC1CCCCC1)*; Piv = CC(C)(C)C(=O)*; Tfa = O=C(C(F)(F)F)*

molecule: CC[C@H](C)[C@H](NC(=O)[C@H](CC(=O)O)NC(=O)[C@H](CC(C)C)NC(=O)[C@H](N)Cc1c(C)c(C)c(C)c(C)c1C)C(=O)N[C@H](C(=O)N[C@@H](Cc1c[nH]c2ccccc12)C(=O)O)[C@@H](C)CC [Example 52, D--Pmp--Leu--Asp--Ile--Ile--Trp] (H-[X3]LDIIW-OH)
resultOperator: =
pIC50: 5.41
--
molecule: CC[C@H](C)[C@H](NC(=O)[C@H](CCCCN)NC(=O)[C@H](CC(C)C)NC(=O)[C@H](NC(C)=O)C(c1ccccc1)c1ccccc1)C(=O)N[C@H](C(=O)N[C@@H](Cc1c[nH]c2ccccc12)C(=O)O)[C@@H](C)CC [Example 69, Ac--D--Dip--Leu--Lys--Ile--Ile--Trp] (Ac-[dDip]LKIIW-OH)
resultOperator: =
pIC50: 7.48
--
molecule: CC[C@H](C)[C@H](NC(=O)[C@H](CC(=O)O)NC(=O)[C@H](CC(C)C)NC(=O)[C@H](NC(=O)CC12CC3CC(CC(C3)C1)C2)C(c1ccccc1)c1ccccc1)C(=O)N[C@H](C(=O)N[C@@H](Cc1c[nH]c2ccccc12)C(=O)O)[C@@H](C)CC [Example 35, Ada--D--Dip--Leu--Asp--Ile--Ile--Trp] ({Acetyl(1-adamantyl)}-[dDip]LDIIW-OH)
resultOperator: =
pIC50: 6.30
--
molecule: CC[C@H](C)[C@H](NC(=O)[C@H](CC(=O)O)NC(=O)[C@@H](Cc1ccccc1)NC(=O)[C@@H](Cc1ccccc1)NC(C)=O)C(=O)N[C@H](C(=O)N[C@@H](Cc1c[nH]c2ccccc12)C(=O)O)[C@@H](C)CC [Example 61, Ac--D--Phe--D--Phe--Asp--Ile--Ile--Trp] (Ac-[dF][dF]DIIW-OH)
resultOperator: =
pIC50: 8.00
--
molecule: CC[C@H](C)[C@H](NC(=O)[C@H](CC(=O)O)NC(=O)[C@H](CC(C)C)NC(=O)[C@H](N)Cc1c2ccccc2cc2ccccc12)C(=O)N[C@H](C(=O)N[C@@H](Cc1c[nH]c2ccccc12)C(=O)O)[C@@H](C)CC [Example 54, D--Ana--Leu--Asp--Ile--Ile--Trp] (H-[X2]LDIIW-OH)
resultOperator: =
pIC50: 5.92
--
molecule: CC[C@H](C)[C@H](NC(=O)[C@H](CC(=O)O)NC(=O)[C@H](CC(C)C)NC(=O)[C@@H](Cc1c(C)c(C)c(C)c(C)c1C)NC(C)=O)C(=O)N[C@H](C(=O)N[C@@H](Cc1c[nH]c2ccccc12)C(=O)O)[C@@H](C)CC [Example 53, Ac--D--Pmp--Leu--Asp--Ile--Ile--Trp] (Ac-[X3]LDIIW-OH)
resultOperator: =
pIC50: 5.26
--
molecule: CC[C@H](C)[C@H](NC(=O)[C@H](CC(=O)O)NC(=O)[C@@H](Cc1ccccc1)NC(C)=O)C(=O)N[C@H](C(=O)N[C@@H](Cc1c[nH]c2ccccc12)C(=O)O)[C@@H](C)CC [Example 11, Ac--D--Phe--Asp--Ile--Ile--Trp] (Ac-[dF]DIIW-OH)
resultOperator: =
pIC50: 5.03
--
molecule: CC[C@H](C)[C@H](NC(=O)[C@H](CC(=O)O)NC(=O)[C@H](CC(C)C)NC(=O)[C@H](NC(=O)C(C)(C)C)C(c1ccccc1)c1ccccc1)C(=O)N[C@H](C(=O)N[C@@H](Cc1c[nH]c2ccccc12)C(=O)O)[C@@H](C)CC [Example 38, tBu--D--Dip--Leu--Asp--Ile--Ile--Trp] (Piv-[dDip]LDIIW-OH)
resultOperator: =
pIC50: 6.30
--
molecule: CC[C@H](C)[C@H](NC(=O)[C@H](CC(=O)O)NC(=O)[C@H](CC(C)C)NC(=O)[C@H](NC(=O)CC1CCCCC1)C(c1ccccc1)c1ccccc1)C(=O)N[C@H](C(=O)N[C@@H](Cc1c[nH]c2ccccc12)C(=O)O)[C@@H](C)CC [Example 34, Cxl--D--Dip--Leu--Asp--Ile--Ile--Trp] (Cyclohexylacetyl-[dDip]LDIIW-OH)
resultOperator: =
pIC50: 6.70
--
molecule: CC[C@H](C)[C@H](NC(=O)[C@H](CC(=O)O)NC(=O)[C@H](CC(C)C)NC(=O)[C@H](NC(=O)C(F)(F)F)C(c1ccccc1)c1ccccc1)C(=O)N[C@H](C(=O)N[C@@H](Cc1c[nH]c2ccccc12)C(=O)O)[C@@H](C)CC [Example 39, CF3 CO--D--Dip--Leu--Asp--Ile--Ile--Trp] (Tfa-[dDip]LDIIW-OH)
resultOperator: =
pIC50: 6.05
--
molecule: CC[C@H](C)[C@H](NC(=O)[C@H](Cc1ccccc1)NC(=O)[C@H](CC(C)C)NC(=O)[C@H](NC(C)=O)C(c1ccccc1)c1ccccc1)C(=O)N[C@H](C(=O)N[C@@H](Cc1c[nH]c2ccccc12)C(=O)O)[C@@H](C)CC [Example 16, Ac--D--Dip--Leu--Phe--Ile--Ile--Trp] (Ac-[dDip]LFIIW-OH)
resultOperator: =
pIC50: 8.10
--
molecule: CC[C@H](C)[C@H](NC(=O)[C@H](CC(=O)O)NC(=O)[C@H](CC(C)C)NC(=O)[C@@H](Cc1ccccc1)NC(C)=O)C(=O)N[C@@H](C)C(=O)N[C@@H](Cc1c[nH]c2ccccc12)C(=O)O [Example 82, Ac--D--Phe--Leu--Asp--Ile--Ala--Trp] (Ac-[dF]LDIAW-OH)
resultOperator: <
pIC50: 6.00

###

Attribute: pIC50
system: ETA (Oryctolagus cuniculus, UniProt A5A8K3)
Construct: The cells used were rabbit renal artery vascular smooth muscle cells; endogenous in cells
Sequence (A5A8K3 21-427): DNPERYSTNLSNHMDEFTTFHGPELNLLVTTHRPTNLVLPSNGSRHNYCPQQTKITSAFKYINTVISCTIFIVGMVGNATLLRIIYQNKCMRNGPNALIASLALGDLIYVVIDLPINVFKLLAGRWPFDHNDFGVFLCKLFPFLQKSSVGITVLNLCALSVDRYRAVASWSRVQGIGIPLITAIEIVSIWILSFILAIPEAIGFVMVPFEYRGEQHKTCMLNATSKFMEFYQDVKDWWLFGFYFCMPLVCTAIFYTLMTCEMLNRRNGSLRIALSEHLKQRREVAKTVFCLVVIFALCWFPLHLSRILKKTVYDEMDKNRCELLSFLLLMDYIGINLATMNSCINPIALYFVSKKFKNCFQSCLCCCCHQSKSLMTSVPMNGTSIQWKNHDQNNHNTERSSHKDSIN
assayExplanation: Endothelin Receptor Binding Assay-A (ETA), intact cell binding of [125I]-ET-1
testContext: Table IIa; rabbit renal artery vascular smooth muscle cells; read-out: Binding Assay IC50 at Receptor Subtypes ETA
pIC50: −log10 of the molar value. Numbered stars: 1 amine (or outer) side, 2 acyl side, 3 side chain; on linkers, the order of the positions; unused ones are H or OH. Square brackets hold non-standard residues; d marks the D form. Peptide text beside a SMILES is read from it. * marks the point of attachment. X3 = Cc1c(C)c(C)c(C[C@@H](N[*:1])C(=O)[*:2])c(C)c1C; Acetyl(1-adamantyl) = O=C(CC12CC3CC(CC(C3)C1)C2)*; dDip = N[C@@H](C(=O)O)C(c1ccccc1)c1ccccc1; d1Nal = N[C@H](Cc1cccc2ccccc12)C(=O)O; X1 = CC(C(=O)*)(c1ccccc1)c1ccccc1; Piv = CC(C)(C)C(=O)*

compound: CC[C@H](C)[C@H](NC(=O)[C@H](CC(=O)O)NC(=O)[C@H](CC(C)C)NC(=O)[C@@H](Cc1ccccc1)NC(C)=O)C(=O)N[C@H](C(=O)N[C@@H](Cc1ccc(O)cc1)C(=O)O)[C@@H](C)CC [Example 89, Ac--D--Phe--Leu--Asp--Ile--Ile--Tyr] (Ac-[dF]LDIIY-OH)
resultOperator: <
pIC50: 5.00

compound: CC[C@H](C)[C@H](NC(=O)[C@@H]1CCCN1C(=O)[C@H](CC(N)=O)NC(=O)[C@H](CC(C)C)NC(=O)[C@@H](Cc1ccccc1)NC(C)=O)C(=O)N[C@@H](Cc1c[nH]c2ccccc12)C(=O)O [Example 90, Ac--D--Phe--Leu--Asn--Pro--Ile--Trp] (Ac-[dF]LNPIW-OH)
resultOperator: =
pIC50: 5.70

compound: CC[C@H](C)[C@H](NC(=O)[C@H](CC(=O)O)NC(=O)[C@H](CC(C)C)NC(=O)[C@@H](Cc1cccc2ccccc12)NC(C)=O)C(=O)N[C@H](C(=O)N[C@@H](Cc1c[nH]c2ccccc12)C(=O)O)[C@@H](C)CC [Example 45, Ac-1-D--Nal--Leu--Asp--Ile--Ile--Trp] (Ac-[d1Nal]LDIIW-OH)
resultOperator: =
pIC50: 6.52

compound: CC[C@H](C)[C@H](NC(=O)[C@H](Cc1ccccc1)NC(=O)[C@H](CC(C)C)NC(=O)[C@H](NC(C)=O)C(c1ccccc1)c1ccccc1)C(=O)N[C@H](C(=O)N[C@@H](Cc1c[nH]c2ccccc12)C(=O)O)[C@@H](C)CC [Example 16, Ac--D--Dip--Leu--Phe--Ile--Ile--Trp] (Ac-[dDip]LFIIW-OH)
resultOperator: =
pIC50: 6.00

compound: CC[C@H](C)[C@H](NC(=O)[C@H](CC(N)=O)NC(=O)[C@H](CC(C)C)NC(=O)[C@H](N)C(c1ccccc1)c1ccccc1)C(=O)N[C@H](C(=O)N[C@@H](Cc1c[nH]c2ccccc12)C(=O)O)[C@@H](C)CC [Example 70, D--Dip--Leu--Asn--Ile--Ile--Trp] (H-[dDip]LNIIW-OH)
resultOperator: =
pIC50: 5.19

compound: CC[C@H](C)[C@H](NC(=O)[C@H](CC(=O)O)NC(=O)[C@H](CCC(=O)O)NC(=O)[C@@H](Cc1ccccc1)NC(C)=O)C(=O)N[C@H](C(=O)N[C@@H](Cc1c[nH]c2ccccc12)C(=O)O)[C@@H](C)CC [Example 9, Ac--D--Phe--Glu--Asp--Ile--Ile--Trp] (Ac-[dF]EDIIW-OH)
resultOperator: =
pIC50: 6.19

compound: CC[C@H](C)[C@H](NC(=O)[C@H](CC(=O)O)NC(=O)[C@H](NC(C)=O)C(c1ccccc1)c1ccccc1)C(=O)N[C@H](C(=O)N[C@@H](Cc1c[nH]c2ccccc12)C(=O)O)[C@@H](C)CC [Example 94, Ac--D--Dip--Asp--Ile--Ile--Trp] (Ac-[dDip]DIIW-OH; C-terminus assumed)
resultOperator: <
pIC50: 6.00

compound: CC[C@H](C)[C@H](NC(=O)[C@H](CC(=O)O)NC(=O)[C@H](CC(C)C)NC(=O)[C@H](NC(=O)C(C)(C)C)C(c1ccccc1)c1ccccc1)C(=O)N[C@H](C(=O)N[C@@H](Cc1c[nH]c2ccccc12)C(=O)O)[C@@H](C)CC [Example 38, tBu--D--Dip--Leu--Asp--Ile--Ile--Trp] (Piv-[dDip]LDIIW-OH)
resultOperator: =
pIC50: 5.00

compound: CC[C@H](C)[C@H](NC(=O)[C@H](CC(=O)O)NC(=O)[C@H](CC(C)C)NC(=O)[C@H](NC(=O)CC12CC3CC(CC(C3)C1)C2)C(c1ccccc1)c1ccccc1)C(=O)N[C@H](C(=O)N[C@@H](Cc1c[nH]c2ccccc12)C(=O)O)[C@@H](C)CC [Example 35, Ada--D--Dip--Leu--Asp--Ile--Ile--Trp] ({Acetyl(1-adamantyl)}-[dDip]LDIIW-OH)
resultOperator: =
pIC50: 5.40

compound: CC[C@H](C)[C@H](NC(=O)[C@H](CC(=O)O)NC(=O)[C@H](CC(C)C)NC(=O)C(C)(c1ccccc1)c1ccccc1)C(=O)N[C@H](C(=O)N[C@@H](Cc1c[nH]c2ccccc12)C(=O)O)[C@@H](C)CC [Example 28, Bppa--Leu--Asp--Ile--Ile--Trp] (X1-LDIIW-OH)
resultOperator: =
pIC50: 5.10

compound: CC[C@H](C)[C@H](NC(=O)[C@H](CC(=O)O)NC(=O)[C@@H](Cc1ccccc1)NC(C)=O)C(=O)N[C@H](C(=O)N[C@@H](Cc1c[nH]c2ccccc12)C(=O)O)[C@@H](C)CC [Example 11, Ac--D--Phe--Asp--Ile--Ile--Trp] (Ac-[dF]DIIW-OH)
resultOperator: =
pIC50: 5.04

compound: CC[C@H](C)[C@H](NC(=O)[C@H](CC(=O)O)NC(=O)[C@H](CC(C)C)NC(=O)[C@@H](Cc1c(C)c(C)c(C)c(C)c1C)NC(C)=O)C(=O)N[C@H](C(=O)N[C@@H](Cc1c[nH]c2ccccc12)C(=O)O)[C@@H](C)CC [Example 53, Ac--D--Pmp--Leu--Asp--Ile--Ile--Trp] (Ac-[X3]LDIIW-OH)
resultOperator: =
pIC50: 5.82

compound: CC[C@H](C)[C@H](NC(=O)[C@H](CC(=O)O)NC(=O)[C@H](CCC(=O)O)NC(=O)[C@H](NC(C)=O)C(c1ccccc1)c1ccccc1)C(=O)N[C@H](C(=O)N[C@@H](Cc1c[nH]c2ccccc12)C(=O)O)[C@@H](C)CC [Example 20, Ac--D--Dip--Glu--Asp--Ile--Ile--Trp] (Ac-[dDip]EDIIW-OH)
resultOperator: =
pIC50: 7.60

// data source = patent US5773414A
